# target: Human IP6K1 (Homo sapiens)
# Construct: GST (N, cleaved yes); made in house; host or cells: C43 E. coli, pGEX-6P-2
# testDetails: IP6K1 high-throughput screen of the Sigma LOPAC (ADP-Glo Max, single point);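 further: final compound concentration 10µM in 5% DMSO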
# Format: biochemical
# runConditions: Sigma LOPAC single-point screen, ADP-Glo Max raw signal per well
outcomeMeasure: Raw Signal
Just the number, please.

Lookup: // Raw Signal lookup, key: CC(C)Cc1ccc(C(C)C(=O)O)cc1 (racemic) [(±)-Ibuprofen]
Found: 57086

Lookup: // Raw Signal lookup, key: CCN(CC)C(=O)N[C@H]1C[C@@H]2c3cccc4[nH]cc(c34)C[C@H]2N(C)C1 [R(+)-Terguride]
Found: 59619

Lookup: // Raw Signal lookup, key: CC(C)(C)NCC(O)c1cc(O)cc(O)c1.CC(C)(C)NCC(O)c1cc(O)cc(O)c1.O=S(=O)(O)O (centres unmarked) [Terbutaline hemisulfate]
Found: 59192

====

# target: Human IP6K1 (Homo sapiens)
# Construct: GST (N, cleaved yes); made in house; host or cells: C43 E. coli, pGEX-6P-2
# testDetails: IP6K1 high-throughput screen of the Sigma LOPAC (ADP-Glo Max, single point);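 further: final compound concentration 10µM in 5% DMSO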
# Type: biochemical
# runConditions: LOPAC single-point screen; Z-score from raw signal with plate average and StDev
Note to self: values exactly at -0.3 are 1 (yes). So Z-score at or above -0.3 is 1 (yes), below is 0 (no).

molecule: COc1ccccc1N1CCN(CCN(C(=O)C2CCCCC2)c2ccccn2)CC1.O=C(O)/C=C\C(=O)O [WAY-100635 maleate]
target: Human IP6K1 (Homo sapiens)
groupLabel: 0 (no)
//
molecule: C[C@]12C[C@H](O)[C@H]3[C@@H](CCC4=CC(=O)CC[C@@]43C)[C@@H]1CC[C@@H]2C(=O)CO
target: Human IP6K1 (Homo sapiens)
groupLabel: 0 (no)
//
molecule: Nc1ncnc2c1ncn2[C@@H]1O[C@H](CO)[C@@H](O)[C@H]1O
target: Human IP6K1 (Homo sapiens)
groupLabel: 1 (yes)
//
molecule: C[C@@H](N)[C@H]1CC[C@H](C(=O)Nc2ccncc2)CC1.Cl.Cl [Y-27632 dihydrochloride]
target: Human IP6K1 (Homo sapiens)
groupLabel: 0 (no)
//
molecule: Nc1nc(N)c2nc(CNc3ccc(C(=O)N[C@@H](CCC(=O)O)C(=O)O)cc3)cnc2n1
target: Human IP6K1 (Homo sapiens)
groupLabel: 0 (no)
//
molecule: CN(C)c1cc2c(Nc3ccc4c(cnn4Cc4ccccc4)c3)ncnc2cn1
target: Human IP6K1 (Homo sapiens)
groupLabel: 0 (no)
//
molecule: CC(C)NCC(O)COc1cccc2ccccc12.Cl (racemic) [(±)-Propranolol hydrochloride]
target: Human IP6K1 (Homo sapiens)
groupLabel: 1 (yes)

Lookup: Does Cc1c(OCC(F)(F)F)ccnc1C[S+]([O-])c1nc2ccccc2[nH]1 (centres unmarked) have a reported Z-score of at least -0.3?
Found: 1 (yes)

====

# target: Human IP6K1 (Homo sapiens, UniProt Q92551)
# Construct: GST (N, cleaved yes); made in house; host or cells: C43 E. coli, pGEX-6P-2
# Sequence (Q92551 whole entry): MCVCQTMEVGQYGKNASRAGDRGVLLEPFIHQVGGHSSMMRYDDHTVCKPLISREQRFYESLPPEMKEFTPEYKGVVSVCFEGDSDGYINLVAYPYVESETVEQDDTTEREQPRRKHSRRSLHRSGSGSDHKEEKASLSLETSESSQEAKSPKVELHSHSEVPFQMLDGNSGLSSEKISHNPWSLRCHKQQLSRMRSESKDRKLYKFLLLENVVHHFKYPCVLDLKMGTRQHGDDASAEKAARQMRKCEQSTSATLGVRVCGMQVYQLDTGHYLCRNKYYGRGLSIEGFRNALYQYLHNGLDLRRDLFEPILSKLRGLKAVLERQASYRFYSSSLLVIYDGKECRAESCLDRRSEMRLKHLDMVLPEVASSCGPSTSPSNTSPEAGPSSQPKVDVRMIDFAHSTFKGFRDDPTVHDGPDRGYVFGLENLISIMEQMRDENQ
# testDetails: IP6K1 high-throughput screen of the Sigma LOPAC (ADP-Glo Max, single point);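 further: final compound concentration 10µM in 5% DMSO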
# Format: biochemical
# runConditions: Sigma LOPAC single-point screen, ADP-Glo Max raw signal per well
Counter-ions that a name gives are not always drawn.
Reported Raw Signal is given for each of the following molecules.

molecule: CC(C)CC(NC(=O)C1OC1C(=O)O)C(=O)NCCCCNC(=N)N (centres unmarked)
Raw Signal: 60196
--
molecule: CCc1c(C(=O)OC)ncc2[nH]c3cc(OC)c(OC)cc3c12
Raw Signal: 57006
--
molecule: CN1CC[C@@]2(C)c3cc(O)ccc3N(C)[C@@H]12.O=C(O)/C=C/C(=O)O [(-)-Eseroline fumarate]
Raw Signal: 57638
--
molecule: O=C(c1ccc(F)cc1)C1CCN(CCn2c(=O)[nH]c3ccccc3c2=O)CC1 [Ketanserin tartrate]
Raw Signal: 61310
--
molecule: CC(=O)N[C@@H](CS)C(=O)O
Raw Signal: 65323

Lookup: // Raw Signal lookup, key: CCCCN1CCC(COC(=O)c2cc(Cl)c(N)c3c2OCCO3)CC1.Cl [SB 204070 hydrochloride]
Found: 60689

Lookup: // Raw Signal lookup, key: CN(C)CCCN1c2ccccc2CCc2ccc(Cl)cc21 [Clomipramine hydrochloride]
Found: 60543

Lookup: // Raw Signal lookup, key: CC(C)NNC(=O)c1ccncc1.O=P(O)(O)O [Iproniazid phosphate]
Found: 60567

Lookup: // Raw Signal lookup, key: NCCc1c[nH]c2ccccc12 [Tryptamine hydrochloride]
Found: 60596

Lookup: // Raw Signal lookup, key: `CCCn1c(=O)c2c(ncn2C)n(CCC)c1=O`
Found: 58298

Lookup: // Raw Signal lookup, key: `CCn1cc(C(=O)O)c(=O)c2cc3c(cc21)OCO3`
Found: 60270

Lookup: // Raw Signal lookup, key: C=CCc1ccccc1OCC(O)CNC(C)C (centres unmarked) [Alprenolol hydrochloride]
Found: 60855

====

# target: Human IP6K1 (Homo sapiens)
# Construct: GST (N, cleaved yes); made in house; host or cells: C43 E. coli, pGEX-6P-2
# testDetails: IP6K1 high-throughput screen of the Sigma LOPAC (ADP-Glo Max, single point);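 further: final compound concentration 10µM in 5% DMSO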
# Type: biochemical
# runConditions: LOPAC single-point screen; Z-score from plate average and StDev
Reported Z-score is given for each of the following compounds.
Just the number, please.

Previously resolved entries follow.
compound: COc1ccc2[nH]c3c(c2c1)CCNC3
Z-score: 2.097
//
compound: CCCCS(=N)(=O)CCC(N)C(=O)O (racemic) [DL-Buthionine-[S,R]-sulfoximine]
Z-score: 1.552

Lookup: // Z-score lookup, key: O=S(=O)(c1cccc2c(I)cccc12)N1CCCNCC1 [ML-7]
Found: 1.8193

Lookup: // Z-score lookup, key: NCCCCCC(=O)O [6-Aminohexanoic acid]
Found: 2.162

Lookup: // Z-score lookup, key: CNc1cc(NS(=O)(=O)c2ccc(N)cc2)nc(NC)n1.Cl.Cl [Ro 04-6790 dihydrochloride]
Found: 1.384

====

Reported Raw Signal is given for each of the following compounds.
# target: Human IP6K1 (Homo sapiens)
# Construct: GST (N, cleaved yes); made in house; host or cells: C43 E. coli, pGEX-6P-2
# testDetails: IP6K1 high-throughput screen of the Sigma LOPAC (ADP-Glo Max, single point);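 further: final compound concentration 10µM in 5% DMSO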
# Format: biochemical
# runConditions: LOPAC single-point screen, ADP-Glo Max luminescence raw signal per well
Just the number, please.

compound: C[N+]1(C)CCC(OC(=O)C(c2ccccc2)c2ccccc2)CC1.[I-] [4-DAMP methiodide]
target: Human IP6K1 (Homo sapiens)
outcomeMeasure: Raw Signal
number: 63096
//
compound: O.c1cnc2c(c1)ccc1cccnc12 [1,10-Phenanthroline monohydrate]
target: Human IP6K1 (Homo sapiens)
outcomeMeasure: Raw Signal
number: 52659
//
compound: Cl.c1ccc(CN(CC2=NCCN2)c2ccccc2)cc1 [Antozoline hydrochloride]
target: Human IP6K1 (Homo sapiens)
outcomeMeasure: Raw Signal
number: 54212
//
compound: Cl.Cl.c1ccc(CCCN2CCN(CCOC(c3ccccc3)c3ccccc3)CC2)cc1 [GBR-12935 dihydrochloride]
target: Human IP6K1 (Homo sapiens)
outcomeMeasure: Raw Signal
number: 62907
//
compound: Nc1c(S(=O)(=O)O)cc(Nc2ccc(Nc3nc(Cl)nc(Nc4cccc(S(=O)(=O)O)c4)n3)c(S(=O)(=O)O)c2)c2c1C(=O)c1ccccc1C2=O
target: Human IP6K1 (Homo sapiens)
outcomeMeasure: Raw Signal
number: 20201
//
compound: Cl.NCC(O)C1CCCCCCC1 (stereo not drawn)
target: Human IP6K1 (Homo sapiens)
outcomeMeasure: Raw Signal
number: 52354
//
compound: NCCc1c[nH]c2ccc(C(N)=O)cc12.O=C(O)/C=C\C(=O)O [5-Carboxamidotryptamine maleate]
target: Human IP6K1 (Homo sapiens)
outcomeMeasure: Raw Signal
number: 52599
//
compound: CCCn1c(=O)c2[nH]c(C3CCCC3)nc2n(CCCOC(=O)c2ccc(S(=O)(=O)F)cc2)c1=O
target: Human IP6K1 (Homo sapiens)
outcomeMeasure: Raw Signal
number: 51325

Lookup: Fill in the recorded Raw Signal for this compound, with Human IP6K1 (Homo sapiens) as test system: `O=C(O)c1cc(=O)c2c(Cl)cc(Cl)cc2[nH]1`
Found: 49912

Lookup: Fill in the recorded Raw Signal for this compound, with Human IP6K1 (Homo sapiens) as test system: CC(C)NC[C@H](O)c1ccc(O)c(O)c1.O=C(O)C(O)C(O)C(=O)O [R(-)-Isoproterenol (+)-bitartrate]
Found: 62194

====

# target: Human IP6K1 (Homo sapiens, UniProt Q92551)
# Construct: GST (N, cleaved yes); made in house; host or cells: C43 E. coli, pGEX-6P-2
# testDetails: IP6K1 high-throughput screen of the Sigma LOPAC (ADP-Glo Max, single point);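 further: final compound concentration 10µM in 5% DMSO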
# Format: biochemical
# runConditions: LOPAC single-point screen, ADP-Glo Max raw signal per well
Counter-ions that a name gives are not always drawn.
Reported Raw Signal is given for each of the following compounds.
Just the number, please.

Previously resolved entries follow.
compound: C=CC1=C(C)c2cc3[nH]c(cc4nc(cc5[nH]c(cc1n2)c(C)c5CCC(=O)O)C(CCC(=O)O)=C4C)c(C)c3C=C [Protoporphyrin IX disodium]
number: 54546

compound: Cc1cc(C(C)(C)C)cc(C)c1CC1=NCCN1 [Xylometazoline hydrochloride]
number: 57404

compound: COc1ccc2c(c1OC)C(=O)OC2C1c2cc3c(cc2CCN1C)OCO3 (single isomer, unassigned; (+)) [(+)-Hydrastine]
number: 55977

compound: Cl.Nc1cc(Cl)c(N=C2NCCN2)c(Cl)c1 [p-Aminoclonidine hydrochloride]
number: 56073

compound: CCc1ccccc1OC[C@@H](O)CN[C@H]1CCCc2ccccc21.O=C(O)C(=O)O [SR 59230A oxalate]
number: 55204

compound: Nc1ncnc2c1c(-c1ccc(Oc3ccccc3)cc1)cn2C1CCCC1
number: 53911

Lookup: Fill in the recorded Raw Signal for this compound, with Human IP6K1 (Homo sapiens, UniProt Q92551) as test system: CCN(CC)CCOC(=O)c1cc(Cl)c(N)cc1OC.Cl [SDZ-205,557 hydrochloride]
Found: 56215

Lookup: Fill in the recorded Raw Signal for this compound, with Human IP6K1 (Homo sapiens, UniProt Q92551) as test system: `Cn1c(=O)c2c(ncn2C)n(C)c1=O`
Found: 57928
